Numbers sourced from patent US11197846B2.

assay text: Plasma pharmacokinetics of nabilone and gabapentin after oral PP-01 once daily for four doses (LC-MS/MS), Example 1 clinical study
condition: human, plasma, oral, 600 mg, AUC0-24, gabapentin 600 mg; Sequence BA; Days 4-5; arithmetic mean
measured parameter: AUC(0-t)
A complete answer gives the number followed by the unit.

Challenge: Fill in AUC(0-t) for record NCC1(CC(=O)O)CCCCC1 [Gabapentin, 1-(aminomethyl)cyclohexaneacetic acid]
Response given: 58100 ng·h/mL

====

assay text: Plasma pharmacokinetics of nabilone and gabapentin after oral PP-01 once daily for four doses (LC-MS/MS), Example 1 clinical study
condition: human, plasma, oral, 600 mg, AUC0-∞, gabapentin 600 mg; Sequence AB; Days 4-5; arithmetic mean
measured parameter: AUC(0-inf) (ng·h/mL)
Give just the numeric value; ng·h/mL need not be written.

Challenge: Return AUC(0-inf) for the following compound: NCC1(CC(=O)O)CCCCC1
Response given: 74900
